Tested on: Calu-6 cells
TEST_PROTOCOL: Quantification of drug sensitivity (CellTiter-Blue), Calu-6
Assay type: cell-based
TEST_CONTEXT: Calu-6 (NSCLC); 72 h; 30-fold excess 2-hydroxypropyl-β-cyclodextrin; combination DSF/ATM 1:1
Method: Quantification of drug sensitivity (Figure 2A): Cell lines (including HT‐29) were obtained from ATCC or as gifts from other research groups at the DKFZ and checked for mycoplasma contamination and authenticity before use. […] After incubation at 37 °C for 4 h, fluorescence (excitation filter: 550 nm, emission filter 590 nm) was determined in an Optima FLUOstar microplate reader (BMG Labtech). […]
PROPERTY: pEC50
Give bare numbers, as −log10 of the molar value.

[Q] GET /values?readout=pEC50&system=Calu-6 cells&item= O=C([O-])CC([S-])C(=O)[O-].[Au+].[Na+].[Na+] (stereo not shown) [ATM, sodium aurothiomalate]
[A] 3.44

---

System: COLO-357
TEST_PROTOCOL: Quantification of drug sensitivity (CellTiter-Blue), COLO-357
Format: cell-based
TEST_CONTEXT: COLO-357 (pancreatic cancer); 72 h; 30-fold excess 2-hydroxypropyl-β-cyclodextrin; combination DSF/ATM 1:1
Protocol: Quantification of drug sensitivity (Figure 2A): Cell lines (including HT‐29) were obtained from ATCC or as gifts from other research groups at the DKFZ and checked for mycoplasma contamination and authenticity before use. […] After incubation at 37 °C for 4 h, fluorescence (excitation filter: 550 nm, emission filter 590 nm) was determined in an Optima FLUOstar microplate reader (BMG Labtech). […]
PROPERTY: EC50 (µM)
Give bare numbers, in µM.

[Q] Tell me the measured EC50 of O=C([O-])CC([S-])C(=O)[O-].[Au+].[Na+].[Na+] (stereo not shown) [ATM, sodium aurothiomalate] , please.
[A] 96

---

Tested on: Calu-6 cells
TEST_PROTOCOL: Quantification of drug sensitivity (CellTiter-Blue), Calu-6
Assay type: cell-based
TEST_CONTEXT: Homo sapiens; Calu-6 (NSCLC); 72 h; 30-fold excess 2-hydroxypropyl-β-cyclodextrin; combination DSF/ATM 1:1
PROPERTY: EC50 (µM)
One number for each entry, in µM.

[Q] Tell me the measured EC50 of CCN(CC)C(=S)SSC(=S)N(CC)CC , please.
[A] 160

This collection of values is drawn from paper PMC8456977.
